# measurement_target: recombinant human Lp-PLA2 (Homo sapiens)
# test_method_notes: Recombinant human Lp-PLA2 assay (rhLp-PLA2, PED6 assay)
# Assay type: biochemical
# run_conditions: lower bounds; read-out: pIC50 values in the PED6 assay (converted)
measurement_type: IC50

[Q] // lookup IC50 for "CC1(C)Cn2c(cc(OCc3ccc(Oc4ccnc(Cl)c4)c(F)c3)nc2=O)N1"
[A] ≤ 1 nM

[Q] // lookup IC50 for "C[C@H]1Cn2c(cc(OCc3cc(F)c(Oc4ccc(F)c(F)c4)c(F)c3)nc2=O)N1C"
[A] ≤ 1 nM

[Q] // lookup IC50 for "[2H]C([2H])(Oc1cc2n(c(=O)n1)C[C@H](C)N2C)c1cc(F)c(F)c(F)c1"
[A] ≤ 10 nM

[Q] // lookup IC50 for "CN1c2cc(OCc3cc(F)c(Oc4ccnc(Cl)c4)c(F)c3)nc(=O)n2CC1(C)C"
[A] ≤ 1 nM

[Q] // lookup IC50 for "CC1(C)Cn2c(cc(OCc3cc(F)c(Oc4ccc(Cl)nc4)c(F)c3)nc2=O)N1"
[A] ≤ 1 nM

[Q] // lookup IC50 for "CN1c2cc(OCc3ccc(Cl)c(F)c3)nc(=O)n2CC1(C)C"
[A] ≤ 10 nM

[Q] // lookup IC50 for "CN1c2cc(OCc3cc(F)cc(Cl)c3)nc(=O)n2CC1(C)C"
[A] ≤ 10 nM

[Q] // lookup IC50 for "CN1c2cc(OCCc3cccs3)nc(=O)n2CC1(C)C"
[A] ≤ 10 nM

More entries:
[Q] // lookup IC50 for "N#Cc1cc(COc2cc3n(c(=O)n2)CCN3C2CC2)ccc1Oc1ccc(F)c(F)c1"
[A] ≤ 10 nM

[Q] // lookup IC50 for "CN1c2cc(OCc3ccc(Oc4ccc(C(F)(F)F)nc4)c(F)c3)nc(=O)n2CC1(C)C"
[A] ≤ 1 nM

----------
# measurement_target: recombinant human Lp-PLA2 (Homo sapiens, UniProt Q13093)
# Sequence (Q13093 22-441): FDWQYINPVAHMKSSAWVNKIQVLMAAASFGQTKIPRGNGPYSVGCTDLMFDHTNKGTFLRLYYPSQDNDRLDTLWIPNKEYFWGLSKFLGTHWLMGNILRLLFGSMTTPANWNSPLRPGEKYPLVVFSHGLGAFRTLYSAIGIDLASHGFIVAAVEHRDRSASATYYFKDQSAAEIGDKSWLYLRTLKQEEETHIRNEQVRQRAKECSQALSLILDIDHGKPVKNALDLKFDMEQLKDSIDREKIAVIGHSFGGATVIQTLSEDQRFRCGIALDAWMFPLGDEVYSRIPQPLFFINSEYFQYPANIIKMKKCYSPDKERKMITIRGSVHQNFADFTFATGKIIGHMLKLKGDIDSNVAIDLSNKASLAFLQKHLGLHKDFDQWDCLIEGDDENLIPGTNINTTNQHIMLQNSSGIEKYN
# test_method_notes: Recombinant human Lp-PLA2 assay (rhLp-PLA2, PED6 assay)
# Type: biochemical
# run_conditions: read-out: rhLp-PLA2 (PED6 assay) (pIC50) (converted)
# Protocol: (1) Recombinant Human Lp-PLA2 Assay (rhLp-PLA2) (Also Referred to as “PED6” Assay) […] The PED6 assay was run as an unquenched 10 μL assay. […] The plates were read for fluorescence intensity at ex: 480/em: 540 using ViewLux microplate imager for Envision spectrofluoroimeters pIC50 data, curve and QC analysis was conducted by using XL fit module in Excel.
log10 IC50: recorded values
Note the log scale: values are log10 of IC50 expressed in nM.

Some solved cases for reference:
[Q] // lookup log10 IC50 for "CN1c2cc(OCc3cc(F)c(Oc4ccnc(C(F)(F)F)c4)c(F)c3)nc(=O)n2CC1(C)C"
[A] -1.10

[Q] // lookup log10 IC50 for "CN1c2cc(OCc3cc(F)c(Oc4cncc(C(F)(F)F)c4)c(F)c3)nc(=O)n2CC1(C)C"
[A] -0.90

[Q] // lookup log10 IC50 for "CN1c2cc(OCc3ccc(Oc4ccc(Cl)nc4)c(F)c3)nc(=O)n2CC1(C)C"
[A] -1.50

[Q] // lookup log10 IC50 for "CN1c2cc(OCc3cc(F)c(Oc4cnc(C(F)(F)F)nc4)c(F)c3)nc(=O)n2CC1(C)C"
[A] -1.10

[Q] // lookup log10 IC50 for "[2H]C([2H])(Oc1cc2n(c(=O)n1)CC(C)(C)N2C(C)C)c1cccc(F)c1F"
[A] -0.20

More entries:
[Q] // lookup log10 IC50 for "CN1c2cc(OCc3ccc(Oc4cnc(C(F)(F)F)nc4)c(F)c3)nc(=O)n2CC1(C)C"
[A] -1.30

[Q] // lookup log10 IC50 for "CN1c2cc(OCc3ccc(Oc4cncc(C(F)(F)F)c4)c(F)c3)nc(=O)n2CC1(C)C"
[A] -1.80

[Q] // lookup log10 IC50 for "CN1c2cc(OCc3cc(F)c(Oc4ccc(Cl)nc4)c(F)c3)nc(=O)n2CC1(C)C"
[A] -1.30

Source listed as patent US9051325B2.
